Data origin: paper PMC9482650

Listing: pKd of selected binders
assay_system: T1, DLG3_2, Q92796
T1 sequence (Q92796 221-321, limits assumed, looked up): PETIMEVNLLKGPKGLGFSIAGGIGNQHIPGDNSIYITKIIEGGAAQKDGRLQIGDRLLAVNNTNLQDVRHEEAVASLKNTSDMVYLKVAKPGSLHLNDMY
assay_overview: holdup assay
Parameters: key: below the threshold = too weak to quantify, mostly under pKd 3.1 to 4
experimental_parameters: plain residues with an end cap or a label only (N-terminal biotin on a linker: ahx)

| binder | pKd |
| --- | --- |
| KEYDDELTFF [USH1C, Q9Y6N9] | 3.61 |
| YNSFLSVTTV [PDZRN3, Q9UPQ7] | 4.27 |
| KDECVIATEV [DLL1, O00548] | 4.52 |
| ADENEQVSAV [RAPGEF6, Q8TEU7] | 4 |
| HSATSVHTSV [MTMR1, Q13613] | 4.72 |
| AKPQPVDSWV [ARVCF, O00192] | 4.49 |
